Each recorded value in this set is attributed to patent US9645128B2.

Molecular target: recombinant apoaequorin (Aequorea victoria, UniProt P07164)
Sequence (P07164 other isoform, or with tags, fused parts or gaps with the stated changes): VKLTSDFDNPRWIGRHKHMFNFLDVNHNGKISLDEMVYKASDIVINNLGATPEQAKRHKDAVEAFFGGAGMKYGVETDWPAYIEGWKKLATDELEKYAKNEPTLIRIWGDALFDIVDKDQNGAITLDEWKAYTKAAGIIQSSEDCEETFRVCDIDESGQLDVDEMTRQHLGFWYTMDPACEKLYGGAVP
Experiment: Luminescence patterns and half decay time of semi-synthetic aequorins
Format: biochemical
Parameters: purchased Chisso Corporation
Conditions: semi-synthetic aequorin; time to reach half of the maximum luminescence intensity
Quantity: Half decay time sec. (s)
Give the value, in units of s, as a plain number.

Please review the following examples before continuing.
COc1ccc(Cc2nc3c(Cc4ccccc4)[nH]c(-c4ccc(O)cc4)cn-3c2=O)cc1 [meo-CTZ, meo-coelenterazine]
1.63
Oc1ccc(-c2cn3c(O)c(Cc4ccccc4)nc3c(Cc3ccccc3)n2)cc1 [h-CTZ, h-coelenterazine, reference compound]
0.69
CC(c1ccccc1)c1nc2c(Cc3ccccc3)[nH]c(-c3ccc(O)cc3)cn-2c1=O (centres unmarked) [αmeh-CTZ, αmeh-coelenterazine]
0.35
COc1cccc(Cc2nc3c(Cc4ccccc4)[nH]c(-c4ccc(O)cc4)cn-3c2=O)c1 [3meo-CTZ, 3meo-coelenterazine]
0.52
O=c1c(Cc2cccc(O)c2)nc2c(Cc3ccccc3)[nH]c(-c3ccc(O)cc3)cn1-2 [3iso-CTZ, 3-isocoelenterazine]
0.24
Cc1cccc(Cc2nc3c(Cc4ccccc4)[nH]c(-c4ccc(O)cc4)cn-3c2=O)c1 [3me-CTZ, 3me-coelenterazine]
0.51

Req: Reported Half decay time sec. for recombinant apoaequorin (Aequorea victoria, UniProt P07164), given Cc1ccc(Cc2nc3c(Cc4ccccc4)[nH]c(-c4ccc(O)cc4)cn-3c2=O)cc1 [me-CTZ, me-coelenterazine] ?
Resp: 5.00

Req: API: value(readout=Half decay time sec., system=recombinant apoaequorin (Aequorea victoria, UniProt P07164)) for record O=c1c(Cc2ccc(C(F)(F)F)cc2)nc2c(Cc3ccccc3)[nH]c(-c3ccc(O)cc3)cn1-2 [cf3-CTZ, cf3-coelenterazine]
Resp: 5.95
